Each entry below carries its reported log10 IC50.
Target: T1, human IL-1α (human, UniProt P01583 113-271)
T1 construct: also called IL-1alpha; hIL-1α
T1 sequence (looked up): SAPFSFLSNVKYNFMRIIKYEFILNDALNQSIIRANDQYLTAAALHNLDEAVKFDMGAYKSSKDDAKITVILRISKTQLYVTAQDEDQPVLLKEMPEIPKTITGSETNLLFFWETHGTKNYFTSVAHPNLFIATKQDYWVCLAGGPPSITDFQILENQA
Assay: Table 62 IC50; RBA presumed
Scale: log10; quantity: IC50; unit before log: nM

The examples below pair each entry with its known result.
BINDER	log10 IC50
ABT1-141-51 (other, VK dAb) VL: DIQMTQSPSSLSASVGDRVTITCRASQWIQKQLAWYQQKPGKVPKLLIYSSSYLQSGVPSRFSGSGSGTDFTLTISSLEPEDFATYYCQQHLRVPMTFGQGTKVVIKR	1.00
ABT1-95-90 (other, VK dAb) VL: DIQMTQSPSSLSASVGDRVTITCRASQPIVRNLRWYQQKPGKAPKLLIYSSSQLEPGVPSRFSGSGSGTDFTLTISSLQPEDFATYHCQQGYRWPVTFGQGTKVEIKR	-0.30
ABT1-95-14 (other, VK dAb) VL: DIQMTQSPSSLSASVGDRVTITCRASQPIVKNLRWYQQKPGKAPKLLIYSSSYLERGVPSRFSGSGSGTDFTLTISSLQPEDFATYHCQQGYRWPVTFGQGTKVEIKR	-0.52
ABT1-95-102 (other, VK dAb) VL: DIQMTQSPSSLSASVGDRVTITCRASQPIVRNLRWYQQKPGKAPKLLIYSSSYLQPGVPSRFSGSGSGTDFTLTISSLQPEDFATYHCQQGYRWPVTFGQGTKVEIKR	-1.00
ABT1-141-6 (other, VK dAb) VL: DIQMTQSPSSLSASVGDRVTITCRASQWIQKQLAWYQQKPGKAPKLLIYSSSYLQSGVPSRFSGSGSGTDFTLTISSLQPEDFATYYCLQHLRVPFTFGQGTKVEIKR	1.30

Reported log10 IC50, binder ABT1-95-34 (other, VK dAb) VL: DIQMTQSPSSLSASVGDRVTITCRASAPIVRNLRWYQQKPGKAPKLLIYSSSYLEPGVPSRFSGSGSGTDFTLTISSLQPEDFATYHCQQGYRWPVTFGQGTKVEIKR : ____
-1.00

Reported log10 IC50, binder ABT1-95-53 (other, VK dAb) VL: DIQMTQSPSSLSASVGDRVTITCRASQPIVANLRWYQQKPGKAPKLLIYSSSYLEPGVPSRFSGSGSGTDFTLTISSLQPEDFATYHCQQGYRWPVTFGQGTKVEIKR : ____
-0.52
